Entries and their measured dH follow.
# test system: HIV-1 YU-2 gp120 (HIV-1 (YU-2), UniProt P35961 32-498)
# assay info: ITC
Square brackets hold non-standard residues; d marks the D form. Ends that are not written are not given here. Ftp = ferrocenyl-triazole-Pro (made from azidoproline); Cit = NC(=O)NCCC[C@H](N)C(=O)O
reported property: dH (kcal/mol)

> print(dat)
                   binder  reported
1    NI[Ftp]WS-NH2 [UM41]      -6.1
2    NNI[Ftp]W-NH2 [UM17]     -13.2
3  [Cit]NNI[Ftp]WS [UM24]     -16.7
4   INNI[Ftp]W-NH2 [UM15]     -16.6
